Value source: patent US20020127221A1

target_entity: CRF-R1
Sequence (P34998 24-415): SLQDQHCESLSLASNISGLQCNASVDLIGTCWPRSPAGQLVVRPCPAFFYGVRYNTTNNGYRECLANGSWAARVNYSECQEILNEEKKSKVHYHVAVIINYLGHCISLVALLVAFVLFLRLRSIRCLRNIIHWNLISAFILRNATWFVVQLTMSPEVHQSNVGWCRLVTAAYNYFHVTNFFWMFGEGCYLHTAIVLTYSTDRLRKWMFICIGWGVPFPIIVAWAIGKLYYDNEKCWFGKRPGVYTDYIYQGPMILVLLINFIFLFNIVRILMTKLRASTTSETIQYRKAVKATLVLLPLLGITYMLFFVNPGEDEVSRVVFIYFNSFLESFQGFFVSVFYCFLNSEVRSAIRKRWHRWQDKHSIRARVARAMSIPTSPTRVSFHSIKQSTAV
experimental_details: radioreceptor competition vs 125I-[Tyr0,Glu1,Nle17]-sauvagine, CHO cell membranes
No end group written: not given here.
measured_quantity: pKi
The quantity pKi is defined as the negative base-10 logarithm of the molar concentration.

stdin: Fill in the blank: the reported pKi of QGPPISIDLSLELLRKMIEIEKQEKEKQQAANNRLLLDTI (peptide, UniProt P01144 1-40, looked up, ends and bridges not checked) [Sauvagine (frog)] is ____.
stdout: 9.03
